These measurements were taken from patent US20220323406A1.

Tested on: ENR+CD organoids (ISC to Paneth cell differentiation)
Assay Name: Primary screen: CCh-stimulated lysozyme secretion LYZ.S, 2.5-D 384-well ENR+CD organoid differentiation
Format: cell-based, mouse
Test Settings: primary screen, dose 2.00 uM
Measure: Dose.FC.LYZ.S

Would you please look over these solved cases?
{"columns": ["Molecule", "Dose.FC.LYZ.S"],
 "data": [
  ["CCOC(=O)[C@H]1O[C@@H]1C(=O)N[C@@H](CC(C)C)C(=O)NCCC(C)C", "−0.091 log2 fold change"],
  ["CC(C)C[C@H](NC(=O)[C@H](Cc1ccccc1)NC(=O)c1cnccn1)B(O)O", "−0.249 log2 fold change"],
  ["Cc1ccccc1C(=O)Nc1ccc(C(=O)N2CCCC(O)c3cc(Cl)ccc32)c(C)c1 (stereo not drawn)", "−0.048 log2 fold change"]
]}

Record Dose.FC.LYZ.S for all entries; do not skip any.
1. Cl.N[C@@H]1C[C@H]1c1ccccc1 (racemic) [Tranylcypromine (2-PCPA) HCl]
2. COc1cc(F)c(C(C)C)cc1-c1ccc(C(F)(F)F)cc1CN1C(=O)O[C@H](c2cc(C(F)(F)F)cc(C(F)(F)F)c2)[C@@H]1C
3. CNC(=O)c1ccc(N2C(=S)N(c3ccc(C#N)c(C(F)(F)F)c3)C(=O)C2(C)C)cc1F [Enzalutamide (MDV3100)]
4. COc1ccc(-n2nc(C(N)=O)c3c2C(=O)N(c2ccc(N4CCCCC4=O)cc2)CC3)cc1

Reply:
1: 0.036 log2 fold change; 2: −0.046 log2 fold change; 3: 0.077 log2 fold change; 4: 0.051 log2 fold change

Record Dose.FC.LYZ.S for all entries; do not skip any.
1. C/C(=C\C(=O)Nc1ccccc1C(=O)O)c1ccc2ccccc2c1
2. CCOC(=O)c1cncn1[C@H](C)c1ccccc1 [Etomidate]
3. O=c1ncn2nc(Sc3ccc(F)cc3F)ccc2c1-c1c(Cl)cccc1Cl

Reply:
−0.081 log2 fold change
0.054 log2 fold change
0.058 log2 fold change

Record Dose.FC.LYZ.S for all entries; do not skip any.
1. O=C(c1cncc(Br)c1)N1CCC(N2CCCC2)CC1
2. Cc1cc(C)nc(NS(=O)(=O)c2ccc(NC(=S)NC(=O)COc3ccc(Br)cc3Cl)cc2)n1

Reply:
1. 0.025 log2 fold change
2. −0.079 log2 fold change

Record Dose.FC.LYZ.S for all entries; do not skip any.
1. Cc1cc2c(C(C)C)c(O)c(O)c(C=O)c2c(O)c1-c1c(C)cc2c(C(C)C)c(O)c(O)c(C=O)c2c1O
2. CO[C@H]1C[C@@H]2CC[C@@H](C)[C@@](O)(O2)C(=O)C(=O)N2CCCC[C@H]2C(=O)O[C@H]([C@H](C)C[C@@H]2CC[C@@H](OCCO)[C@H](OC)C2)CC(=O)[C@H](C)/C=C(\C)[C@@H](O)[C@@H](OC)C(=O)[C@H](C)C[C@H](C)/C=C/C=C/C=C/1C [Everolimus (RAD001)]
3. C[C@@H]1CCN(C(=O)CC#N)C[C@@H]1N(C)c1ncnc2[nH]ccc12

Reply:
−0.085 log2 fold change
−0.039 log2 fold change
0.025 log2 fold change

----------
Could you please report measured Z.LYZ.NS for the items listed next?
Tested on: ENR+CD organoids (ISC to Paneth cell differentiation)
Assay Name: Primary screen: basal (non-stimulated) lysozyme secretion LYZ.NS, 2.5-D 384-well ENR+CD organoid differentiation
Format: cell-based, mouse
Test Settings: primary screen, dose 2.00 uM, standard z score
Answers are plain numbers.

Would you please look over these solved cases?
{"columns": ["Molecule", "Z.LYZ.NS"],
 "data": [
  ["O=C(NOC[C@H](O)CO)c1ccc(F)c(F)c1Nc1ccc(I)cc1F", "−1.215"],
  ["COc1ccccc1S(=O)(=O)Nc1ccc2c(c1)CN(C)C(=O)N2", "−0.852"],
  ["O=C(O)c1ccc(Nc2ncc3c(n2)-c2ccc(Cl)cc2C(c2c(F)cccc2F)=NC3)cc1", "−0.868"]
]}

Record Z.LYZ.NS for all entries; do not skip any.
1. Nc1ncnc2c1c(-c1cccc(OCc3ccccc3)c1)cn2C1CC(CN2CCCC2)C1 (centres unmarked)
2. CN(Cc1cnc2nc(N)nc(N)c2n1)c1ccc(C(=O)N[C@@H](CCC(=O)O)C(=O)O)cc1 [Methotrexate]

Reply:
["−0.823", "−1.132"]

Record Z.LYZ.NS for all entries; do not skip any.
1. CNC(=O)c1cc(Oc2ccc(NC(=O)Nc3ccc(Cl)c(C(F)(F)F)c3)cc2)ccn1
2. Cc1cnc(-c2cc(N3CCN(C(=O)CCS(C)(=O)=O)CC3)ncc2Cl)c(C)c1
3. CCCC(C)NC(=O)c1ccc(Cl)c(Cl)c1 (centres unmarked)

Reply:
0.830
0.094
0.160

----------
Test system: ENR+CD organoids
Assay Name: Primary screen: ATP (CellTiter-Glo 3D, CTG) cell number/viability, 2.5-D 384-well ENR+CD organoids
Test Settings: primary screen, standard z score, dose 2.00 uM
Structures can show the parent of a compound that is named as a salt.
Measure: Z.CTG
Numbers only.

Would you please look over these solved cases?
{"columns": ["Compound", "Experimental System", "Endpoint Value"],
 "data": [
  ["Cc1ccc2c(=O)c3cccc(CC(=O)O)c3oc2c1C", "ENR+CD organoids", "−1.139"],
  ["NC(=O)C1CCCc2c1[nH]c1ccc(Cl)cc21 (centres unmarked) [EX 527 (Selisistat)]", "ENR+CD organoids", 0.814],
  ["C=CC(=O)Nc1cccc(Nc2nc(Nc3ccc(Oc4ccnc(C(=O)NC)c4)cc3)ncc2F)c1", "ENR+CD organoids", "−0.260"],
  ["CN1CCC[C@@H]1CCO[C@](C)(c1ccccc1)c1ccc(Cl)cc1 [Clemastine Fumarate]", "ENR+CD organoids", 0.058],
  ["CC1C(=O)OC2C(O)C34C5CC(C(C)(C)C)C36C(OC(=O)C6O)OC4(C(=O)O5)C12O (centres unmarked) [Ginkgolide B]", "ENR+CD organoids", "−0.369"],
  ["c1ccc(CNc2nc(NCc3ccccc3)c3ccccc3n2)cc1", "ENR+CD organoids", 0.010]
]}

Record Z.CTG for all entries; do not skip any.
1. CS(=O)(=O)N1CCN(Cc2cc3nc(-c4cccc5[nH]ncc45)nc(N4CCOCC4)c3s2)CC1
2. Cc1ccc([C@@H]2O[C@H](CO)[C@@H](O)[C@H](O)[C@H]2O)cc1Cc1ccc(-c2ccc(F)cc2)s1

Reply:
1. −0.472
2. 0.101

----------
Test system: ENR+CD organoids
Assay Name: Primary screen: ATP (CellTiter-Glo 3D, CTG) cell number/viability, 2.5-D 384-well ENR+CD organoids
Test Settings: primary screen, dose 2.00 uM
Structures can show the parent of a compound that is named as a salt.
Measure: Dose.FC.CTG (log2 fold change)
Numbers only, in log2 fold change.

Would you please look over these solved cases?
{"columns": ["Compound", "Experimental System", "Dose.FC.CTG, log2 fold change"],
 "data": [
  ["CC(C)NC[C@@H](C(=O)N1CCN(c2ncnc3c2[C@H](C)C[C@H]3O)CC1)c1ccc(Cl)cc1 [GDC-0068]", "ENR+CD organoids", 0.184],
  ["COc1cc(F)c(C(C)C)cc1-c1ccc(C(F)(F)F)cc1CN1C(=O)O[C@H](c2cc(C(F)(F)F)cc(C(F)(F)F)c2)[C@@H]1C [Anacetrapib (MK-0859)]", "ENR+CD organoids", "−0.094"],
  ["C/C(=C\\C(=O)Nc1ccccc1C(=O)O)c1ccc2ccccc2c1 [BIBR 1532]", "ENR+CD organoids", "−0.034"]
]}

Record Dose.FC.CTG for all entries; do not skip any.
1. COc1cc(N2CCN(C)CC2)ccc1Nc1nccc(-c2cn(C)c3cnccc23)n1 [AZ191]
2. O=C(/C=C/c1ccc(O)c(O)c1)OCCc1ccccc1 [Caffeic Acid Phenethyl Ester]
3. O=C(/C=C/c1cccc(S(=O)(=O)Nc2ccccc2)c1)NO [Belinostat (PXD101)]
4. C[C@H](CS)C(=O)N1CCC[C@H]1C(=O)O [Captopril]
5. COc1cc(OC2CCN(C)CC2)ccc1Nc1ncc2c(n1)n(C1CCCC1)c(=O)n2C [AZ 3146]

Reply:
[0.150, "−0.064", "−0.782", 0.123, "−0.369"]

Record Dose.FC.CTG for all entries; do not skip any.
1. O=c1[nH]c2ccc(Cl)cc2c(N[C@@H]2CN3CCC2CC3)c1-c1nc2ccccc2[nH]1 [CHIR-124]
2. c1ccc(CC2=NCCN2)cc1 [Tolazoline HCl]

Reply:
1: −0.861; 2: −0.051

----------
Could you please report measured Dose.FC.CTG for the items listed next?
Test system: ENR+CD organoids
Assay Name: Primary screen: ATP (CellTiter-Glo 3D, CTG) cell number/viability, 2.5-D 384-well ENR+CD organoids;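 also: compounds given at plating and again on day 3 over a 6-day differentiation from ENR+CV stem-cell-enriched precursors, ATP measured on day 6, plate median as control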
Test Settings: primary screen; dose 2.00 uM; FC vs plate median
Structures can show the parent of a compound that is named as a salt.
Answers are plain numbers, in log2 fold change.

{"columns": ["Molecule", "Dose.FC.CTG / log2 fold change"],
 "data": [
  ["CCc1cncnc1N1CCN(Cc2nc3ccc(C(F)(F)F)cc3[nH]2)CC1 [PF-4708671]", 0.302],
  ["Cc1ccccc1C(=O)Nc1ccc(C(=O)N2CCCC(N(C)C)c3ccccc32)cc1 (centres unmarked) [Mozavaptan]", 0.108],
  ["CCc1c(C(=O)NCCc2ccc(N3CCCCC3)cc2)[nH]c2ccc(Cl)cc12 [Org 27569]", 0.362],
  ["O=C(O)/C=C/c1ccc(Cn2ccnc2)cc1 [Ozagrel HCl]", 0.183]
]}

Record CCN(CC)CCCC(C)Nc1nc(C)cc(Nc2ccc3nc(C)cc(N)c3c2)n1 (centres unmarked) [NSC 23766] , field Dose.FC.CTG: 0.117
